- measurement-protocol: Primary qHTS for inhibitors of nuclear receptor binding SET domain protein 2 (NSD2) in an RCH-ACV wild type WT cells (2C) (AID 1645877); note: potency is the fitted concentration of half-maximal effect; nearly all actives have a fitted effect of over 70% in size
- run-parameters: RCH-ACV (leukaemia line) NSD2 WT (2C) viability, CellTiter-Glo, 72 h; series mostly up to 44.9 µM
Results filed as inconclusive are left out. Calls of active or inactive are those of the source. Calls come from the whole dose curve; as a rule, active = well fitted inhibition curve with a large enough effect; inconclusive = small, poorly fitted or top-dose-only effect; inactive = no such curve, though single readings can be large or run the other way.
Reported values of Potency for individual entries

1. Cc1ccc(-n2nc(C(C)(C)C)cc2NC(=O)Nc2cc(COc3cccnc3)[nH]n2)cc1; 9.16 µM (active)
2. CC(CNS(=O)(=O)C(C)C)c1ccc(-c2ccc(C#N)cc2)cc1 (stereo not given); 8.17 µM (active)

// query Potency value for entry CC1C2=CC(=O)OC2(O)CC2C1CCC1C(C)(C)CCC(O)C21C (stereo not given)
8.98 µM (active)

// query Potency value for entry C/C=C(\C)C(=O)OC1C2(O)CC3=C4CC(=O)OC(c5ccoc5)C4(C)CCC3C(C)(C2=O)C(C(OC(C)=O)C(=O)OC)C1(C)C (stereo not given)
3.83 µM (active)

// query Potency value for entry C[C@]12CC/C(=N\OCC(=O)O)C=C1CC[C@@H]1[C@@H]2[C@@H](O)C[C@@]2(C)[C@H]1CC[C@]2(O)C(=O)CO
9.16 µM (active)

// query Potency value for entry C=C(CO)C(=O)O[C@H]1C[C@@]23O[C@@H]2CC/C(=C/[C@H]2OC(=O)C(=C)[C@H]12)CO[C@H]3O
8.98 µM (active)

// query Potency value for entry N#CN1CCC[C@@H](n2nc(-c3ccc(Oc4ccc(F)cc4F)cc3)c(C(N)=O)c2N)C1
16.6 µM (active)

// query Potency value for entry COc1ccc(NC(=O)c2ccc(-c3ccc(C(N)=O)cc3C)cc2)cc1N1CCN(C)CC1
14.5 µM (active)

// query Potency value for entry COc1cc2nc(=NC(=O)c3cccnc3)n3c(c2cc1OC)NCC3
5.15 µM (active)

// query Potency value for entry CCC(=O)OCC(=O)[C@@]1(OC(=O)CC)[C@@H](C)C[C@H]2[C@@H]3CCC4=CC(=O)C=C[C@]4(C)[C@@]3(F)[C@@H](O)C[C@@]21C
0.0073 µM (active)
